Test system: Hepatotoxicity
Protocol: FDA HLAED, lactate dehydrogenase (LDH) increase
Experimental parameters: human
Recorded endpoint: LDH Increase - Activity Score

Take a look at these entries with their results.
{"columns": ["Compound", "Study system", "LDH Increase - Activity Score"],
 "data": [
  ["Cc1nnc2n1-c1ccc(Cl)cc1C(c1ccccc1Cl)=NC2", "Hepatotoxicity", "Inactive"],
  ["C=C1CC[C@@]2(O)[C@H]3Cc4ccc(O)c5c4[C@@]2(CCN3CC2CC2)[C@H]1O5", "Hepatotoxicity", "Inactive"],
  ["COc1cc([C@@H]2c3cc4c(cc3[C@@H](O[C@@H]3O[C@@H]5CO[C@@H](C)O[C@H]5[C@H](O)[C@H]3O)[C@H]3COC(=O)[C@H]23)OCO4)cc(OC)c1O [ETOPOSIDE]", "Hepatotoxicity", "Inactive"],
  ["C[C@H](O)C(=O)Nc1c(I)c(C(=O)NC(CO)CO)c(I)c(C(=O)NC(CO)CO)c1I", "Hepatotoxicity", "Active"],
  ["O=C(NCC(O)CO)c1c(I)c(C(=O)NCC(O)CO)c(I)c(N(CCO)C(=O)CO)c1I (stereo not drawn)", "Hepatotoxicity", "Inactive"],
  ["CC(C)COCC(CN(Cc1ccccc1)c1ccccc1)N1CCCC1 (stereo not drawn)", "Hepatotoxicity", "Inactive"]
]}

// for each compound in input: emit LDH Increase - Activity Score
1. CCCN1C[C@H](CSC)C[C@@H]2c3cccc4[nH]cc(c34)C[C@H]21 [PERGOLIDE]
2. C[C@@H](CN1CC(=O)NC(=O)C1)N1CC(=O)NC(=O)C1
3. Cc1cc(C2CCCCC2)n(O)c(=O)c1
4. CN1C(=O)OC(C)(C)C1=O

1. Inactive
2. Inactive
3. Inactive
4. Marginally Active

Every entry's value here was drawn from ChEMBL document CHEMBL1697781.
